Target or test system: Cytochrome P450 3A4 (Homo sapiens)
Method summary: NVS_ADME_hCYP3A4: NovaScreen (NVS) CYP450-related Enzyme Activity (ADME) Assay for human CYP3A4 (AID 2283110)
Results filed as inconclusive are left out. Activity calls are given as the source filed them. The calls were made as follows: active = hit-call score of the fitted dose curve at least 0.9, where 1 is the maximum; inconclusive = response in the unintended direction; inactive = score below 0.9.
One label from this list, please: class 1 (active), class 0 (inactive)

{"columns": ["Molecule", "Assigned class"],
 "data": [
  ["O=C(O)Cc1cc(I)c(Oc2cc(I)c(O)c(I)c2)c(I)c1", "class 0"],
  ["CC(=O)NC1(c2cccc(F)c2)CCN(CC[C@@]2(c3ccc(Cl)c(Cl)c3)CN(c3ccccc3)C(=O)CO2)CC1", "class 1"],
  ["NC(=O)N1C(=O)C(C(=O)c2cc(Cl)cs2)c2cc(F)c(Cl)cc21 (centres undefined)", "class 0"]
]}

# input for lookup
How was NC(=O)N(O)[C@@H]1C=C[C@H](Oc2cccc(Oc3ccc(F)cc3)c2)C1 classified in this test? class 1

----------
Target or test system: Cellular tumor antigen p53 (Homo sapiens) (UniProt P04637)
Sequence (P04637 whole entry, looked up): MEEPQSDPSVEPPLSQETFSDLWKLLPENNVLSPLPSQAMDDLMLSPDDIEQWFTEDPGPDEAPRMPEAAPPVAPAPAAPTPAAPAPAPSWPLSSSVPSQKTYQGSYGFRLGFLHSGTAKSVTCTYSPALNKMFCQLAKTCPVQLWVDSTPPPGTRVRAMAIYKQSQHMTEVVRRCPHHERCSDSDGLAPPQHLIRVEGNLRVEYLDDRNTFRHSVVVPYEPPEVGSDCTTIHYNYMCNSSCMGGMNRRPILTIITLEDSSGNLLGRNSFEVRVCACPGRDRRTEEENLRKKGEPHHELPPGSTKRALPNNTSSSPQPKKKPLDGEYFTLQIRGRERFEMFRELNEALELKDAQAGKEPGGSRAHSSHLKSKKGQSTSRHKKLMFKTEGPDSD
Method summary: TOX21_p53_BLA_p2_ratio: Tox21 HCT-116 p53 Agonism Beta-lactamase Assay, Ratio, Phase 2 (AID 2283592)
Results filed as inconclusive are left out. Calls of active or inactive are those of the source. Rule for the calls: active = hit-call score of the fitted dose curve at least 0.9, where 1 is the maximum; inconclusive = response in the unintended direction; inactive = score below 0.9.
One label from this list, please: True for active, False for inactive

A selection of reference data follows.
{"columns": ["Compound", "Assigned class"],
 "data": [
  ["CN(C)C=O", "False"],
  ["CC[C@H](C)[C@@H](C(=O)O)n1sc2ccccc2c1=O", "False"],
  ["CC(C)(C)c1ccc(O)c(C(C)(C)C)c1", "False"],
  ["Nc1cccc2c(N)cccc12", "False"],
  ["CCCCCCCCCCCCCCCS(=O)(=O)Oc1ccccc1", "False"]
]}

How was Cc1oc(-c2ccccc2)nc1CCOc1ccc(C[C@H](Nc2ccccc2C(=O)c2ccccc2)C(=O)O)cc1 classified in this test? True

----------
Read-out: C-C motif chemokine 2 (Homo sapiens)
Method summary: BSK_KF3CT_MCP1: BioMAP Diversity Plus: KF3CT Assay for Monocyte Chemoattractant Protein 1 (MCP1/CCL2) Biomarker Activity (AID 2283073)
Test context: primary human keratinocytes with fibroblasts; actives raise or lower the signal
Active and inactive are the calls of the source. Rule for the calls: active = hit-call score of the fitted dose curve at least 0.9, where 1 is the maximum; inactive = score below 0.9.
One label from this list, please: label 1 (active), label 0 (inactive)

{"columns": ["Molecule", "Assigned class"],
 "data": [
  ["N#C[C@@H]1CC(F)(F)CN1C(=O)CNC1CC2CCC(C1)N2c1ncccn1 (stereo not given in full)", "label 0"],
  ["CC1=C(/C=C/C(C)=C/C=C/C(C)=C/C(=O)O)C(C)(C)CCC1", "label 1"],
  ["CCCCC(CC)COC(=O)CCCCC(=O)OCc1ccccc1 (stereo not given)", "label 0"],
  ["CC[C@H](c1ccc(O)cc1)[C@@H](CC)c1ccc(O)cc1", "label 1"],
  ["OC1CCC(C2CCCCC2)CC1 (stereo not given)", "label 0"],
  ["CCCCCCCCCCCCN1CCCC1=O", "label 1"]
]}

How was CC(C)CCCCCCOC(=O)CCCCC(=O)OCCCCCCC(C)C classified in this test? label 0

How was CCc1ccc(CCOc2ccc(CC3SC(=O)NC3=O)cc2)nc1 (stereo not given) classified in this test? label 0

----------
Method summary: ATG_VDRE_CIS: Attagene CIS-FACTORIAL HepG2 Assay for human Vitamin D Receptor Element (VDRE) (AID 2282968)
Test context: HepG2 VDRE cis-reporter transcription, actives raise or lower the signal
Active and inactive are the calls of the source. The calls were made as follows: active = hit-call score of the fitted dose curve at least 0.9, where 1 is the maximum; inactive = score below 0.9.
One label from this list, please: active, inactive

{"columns": ["Compound", "Assigned class"],
 "data": [
  ["CCCCOCCO", "inactive"],
  ["O=[N+]([O-])c1ccc(O)cc1", "inactive"],
  ["Oc1cc2ccccc2c2ccccc12", "inactive"],
  ["CCc1nn(C2CCCCC2)c2cc(C3(C#N)CCC(C(=O)O)CC3)ccc12 (stereo not drawn)", "active"],
  ["O=C(OCCOCCOC(=O)c1ccccc1)c1ccccc1", "inactive"]
]}

How was c1ccc2c(c1)ccc1ccccc12 classified in this test? inactive

----------
Read-out: Monokine induced gamma interferon (MIG), CXCL9 (gene 4283)
Method summary: BSK_SAg_MIG: BioMAP Diversity Plus: SAg Assay for Monokine induced gamma interferon (MIG) Biomarker Activity (AID 2283092)
Test context: primary human HUVEC with PBMC; actives raise or lower the signal
Experimental: BSK_SAg is a cell-based, multiplexed-readout assay that uses umbilical vein endothelium and peripheral blood mononuclear cells, a human vascular primary cell co-culture, with measurements taken at 24 hours after chemical dosing in a 96-well plate.BSK_SAg_MIG is an assay component measured in the BSK_SAg assay. It measures MIG antibody related to regulation of gene expression using ELISA technology.Data from the assay component BSK_SAg_MIG was analyzed into 1 assay endpoint. […]
Active and inactive are the calls of the source. The calls were made as follows: active = hit-call score of the fitted dose curve at least 0.9, where 1 is the maximum; inactive = score below 0.9.
One label from this list, please: active, inactive

A selection of reference data follows.
{"columns": ["Compound", "Assigned class"],
 "data": [
  ["CN(C)C=O", "inactive"],
  ["C#C[C@]1(O)CC[C@H]2[C@@H]3CCC4=CC(=O)CC[C@@H]4[C@H]3CC[C@@]21C", "inactive"],
  ["CC1=C(/C=C/C(C)=C/C=C/C(C)=C/C(=O)O)C(C)(C)CCC1", "active"],
  ["COc1ccc([N+](=O)[O-])cc1N", "inactive"],
  ["Oc1cc2ccccc2c2ccccc12", "active"],
  ["CCCCOCCO", "inactive"]
]}

How was CCOC(=O)CC(O)(CC(=O)OCC)C(=O)OCC classified in this test? inactive

How was Cc1cc(C)c(O)c(C)c1 classified in this test? inactive

How was CC(=O)NC1(c2cccc(F)c2)CCN(CC[C@@]2(c3ccc(Cl)c(Cl)c3)CN(c3ccccc3)C(=O)CO2)CC1 classified in this test? inactive

How was Cc1cc(CCN2CCN(c3nsc4ccccc34)CC2)cc2c1NC(=O)CC2(C)C classified in this test? active

----------
Target or test system: Cytochrome P450 2C19 (Homo sapiens)
Method summary: NVS_ADME_hCYP2C19: NovaScreen (NVS) CYP450-related Enzyme Activity (ADME) Assay for human CYP2C19 (AID 2283113);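 as to AC50: potency for inhibition seen as loss of fluorescent signal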
Records with an inconclusive call do not appear. Active and inactive are the calls of the source. Rule for the calls: active = hit-call score of the fitted dose curve at least 0.9, where 1 is the maximum; inconclusive = response in the unintended direction; inactive = score below 0.9.
Readout: AC50

Here is how some compounds turned out for AC50.
{"columns": ["Compound", "AC50"],
 "data": [
  ["O=C(OCCOCCOC(=O)c1ccccc1)c1ccccc1", "7.94 µM (active)"],
  ["CCCOc1sc(C(=O)N2CCC(c3cc(CN)ccc3F)CC2)c(C)c1Br", "0.68 µM (active)"],
  ["O=C(O)c1ccccc1C(c1ccc(O)cc1)c1ccc(O)cc1", "5.38 µM (active)"],
  ["Cc1cc(C)c(O)c(C)c1", "inactive"],
  ["CCC(=C(c1ccc(O)cc1)c1ccc(OCCN(C)C)cc1)c1ccccc1", "3.91 µM (active)"],
  ["Nc1cccc2c(N)cccc12", "3.08 µM (active)"],
  ["COc1ccc([N+](=O)[O-])cc1N", "inactive"],
  ["Cc1cc(CCN2CCN(c3nsc4ccccc34)CC2)cc2c1NC(=O)CC2(C)C", "4.35 µM (active)"]
]}

Report AC50 for each item below.
1. Oc1cc2ccccc2c2ccccc12
2. ClC1=C(Cl)C(Cl)(Cl)C(Cl)=C1Cl
3. CC[C@H](c1ccc(O)cc1)[C@@H](CC)c1ccc(O)cc1
4. CCCCCCCCCCCCCCCS(=O)(=O)Oc1ccccc1
5. CC1=C(/C=C/C(C)=C/C=C/C(C)=C/C(=O)O)C(C)(C)CCC1

0.872 µM (active)
inactive
5.22 µM (active)
5 µM (active)
inactive

----------
Method summary: ATG_GRE_CIS: Attagene CIS-FACTORIAL HepG2 Assay for human Glucocorticoid Response Elements (GRE) (AID 2282947)
Test context: HepG2 GRE cis-reporter, Attagene multiplex mRNA; actives raise or lower the signal
Activity calls are given as the source filed them. How the source made its calls: active means hit-call score of the fitted dose curve at least 0.9, where 1 is the maximum; inactive means score below 0.9.
One label from this list, please: active, inactive

A selection of reference data follows.
{"columns": ["Compound", "Assigned class"],
 "data": [
  ["CCCCCCCCC(=O)O", "inactive"],
  ["Cc1ccc(S(=O)(=O)O)c(C)c1", "inactive"],
  ["Oc1cc2ccccc2c2ccccc12", "inactive"],
  ["NC(=O)N(O)[C@@H]1C=C[C@H](Oc2cccc(Oc3ccc(F)cc3)c2)C1", "inactive"],
  ["CCCOc1sc(C(=O)N2CCC(c3cc(CN)ccc3F)CC2)c(C)c1Br", "inactive"],
  ["O=c1c(-c2ccc(O)cc2)coc2cc(O)ccc12", "inactive"],
  ["COC(=O)CCCCC(=O)OC", "inactive"],
  ["O=C(/C=C/c1ccc(O)cc1)CC(=O)/C=C/c1ccc(O)cc1", "inactive"]
]}

How was CCCOC(=O)c1ccc(O)cc1 classified in this test? inactive

How was N#C[C@@H]1CC(F)(F)CN1C(=O)CNC1CC2CCC(C1)N2c1ncccn1 (stereo not given in full) classified in this test? inactive

How was O=C(OCCOCCOC(=O)c1ccccc1)c1ccccc1 classified in this test? inactive

How was NCC(F)(F)C(F)(F)C(F)(F)C(F)(F)C(F)(F)C(F)(F)C(F)(F)F classified in this test? inactive

How was c1ccc2c(c1)Cc1ccccc1-2 classified in this test? inactive
